# pKi per record follows
target_or_test_system: Thrombin (Homo sapiens)
pKi: −log10 of the molar value.

# compound, pKi
measured = [
    ("Cc1cnc(NCC(F)(F)c2ccccc2)c(=O)n1CCNc1ccncc1 [B]", "≥ 7.00"),
    ("Cc1ccc(NS(=O)(=O)Cc2ccccc2)c(=O)n1CCCn1ncc2ccc(N)cc21 [Q]", "5.60 to 6.52"),
    ("Cc1ccc(NS(=O)(=O)Cc2ccccc2)c(=O)n1CCCNc1ccncc1F [J]", "≥ 7.00"),
]
